Measured values drawn from ChEMBL document CHEMBL2057163 for this set.

test: Half life in dog at 3 mg/kg, po; type: ADME, organism-based, Canis lupus familiaris; design: dose 3 mg/kg, route oral; settings: in vivo
MEASURED PARAMETER: half-life (min)

>>> recorded_result("CCOc1cc2cc(-c3c(C)nc(NCC4CC4)nc3N[C@@H]3C[C@H](CO)[C@@H](O)[C@H]3O)oc2c(C)n1.Cl")
126
>>> recorded_result("CCc1cc2cc(-c3c(C)nc(NCC(F)(F)F)nc3N[C@@H]3C[C@H](CO)[C@@H](O)[C@H]3O)oc2cn1.Cl")
126

---

experiment: Oral bioavailability in monkey at 3 mg/kg; type: ADME, organism-based, Macaca mulatta; conditions: rhesus monkey, in vivo
MEASURED PARAMETER: bioavailability (%)

[A] CCOc1cc2cc(-c3c(C)nc(NCC4CC4)nc3N[C@@H]3C[C@H](CO)[C@@H](O)[C@H]3O)oc2c(C)n1.Cl
[B] CCc1cc2cc(-c3c(C)nc(NCC(F)(F)F)nc3N[C@@H]3C[C@H](CO)[C@@H](O)[C@H]3O)oc2cn1.Cl
Response body: label of entry with the larger bioavailability; valid values A , B . Selection: enter the item's label.
A
(A: 100%, B: 69%)

---

assay: Clearance in monkey at 3 mg/kg, po; assay type: ADME, organism-based, Macaca mulatta; design: dose 3 mg/kg, route oral; conditions: rhesus monkey, in vivo
MEASURED PARAMETER: CL/F (mL/min/kg)

>>> recorded_result("CCOc1cc2cc(-c3c(C)nc(NCC4CC4)nc3N[C@@H]3C[C@H](CO)[C@@H](O)[C@H]3O)oc2c(C)n1.Cl")
16
>>> recorded_result("CCc1cc2cc(-c3c(C)nc(NCC(F)(F)F)nc3N[C@@H]3C[C@H](CO)[C@@H](O)[C@H]3O)oc2cn1.Cl")
15

---

assay: Cytotoxicity against human hepatoma cells assessed as decrease in GAPDH RNA level after 3 days by RT-PCR analysis; assay type: cell-based
Overview of recorded CC50 at 72 h for various compounds
Write the number in µM without appending the unit.

Field: example entries. Status: answers known.
>>> recorded_result("Cc1cncc2oc(-c3c(Cl)nc(N)nc3N[C@@H]3C[C@H](CO)[C@@H](O)[C@H]3O)cc12")
25
>>> recorded_result("CCc1cc2cc(-c3c(C)nc(NCC(F)(F)F)nc3N[C@@H]3C[C@H](CO)[C@@H](O)[C@H]3O)oc2cn1")
13

Now take the following compound into account.
Please report the recorded CC50 at 72 h for "COc1cc2cc(-c3c(C)nc(NCC(C)(C)C)nc3N[C@@H]3C[C@H](CO)[C@@H](O)[C@H]3O)oc2c(C)n1" .
17

---

experiment: AUC (0 to 6 hrs) in rat at 10 mg/kg, po; type: ADME, organism-based; set-up: time < 6 hr, dose 10 mg/kg, route oral; details: plasma
MEASURED PARAMETER: AUC(0-t) at 6 h (µM·h)

Field: example entries. Status: answers known.
>>> recorded_result("CCCCCNc1nc(C)c(-c2cc3cc(CC)ncc3o2)c(N[C@@H]2C[C@H](CO)[C@@H](O)[C@H]2O)n1.Cl")
0.48
>>> recorded_result("CNc1nc(Cl)c(-c2cc3cc(OC)nc(C)c3o2)c(N[C@@H]2C[C@H](CO)[C@@H](O)[C@H]2O)n1.Cl")
6.5
>>> recorded_result("Cc1cc2cc(-c3c(Cl)nc(N)nc3N[C@@H]3C[C@H](CO)[C@@H](O)[C@H]3O)oc2c(C)n1.Cl")
0.01
>>> recorded_result("CCc1cc2cc(-c3c(Cl)nc(N)nc3N[C@@H]3C[C@H](CO)[C@@H](O)[C@H]3O)oc2c(C)n1.Cl")
0.01

[1] CCc1cc2cc(-c3c(C)nc(NCC(C)C)nc3N[C@@H]3C[C@H](CO)[C@@H](O)[C@H]3O)oc2cn1.Cl
[2] CCOCCNc1nc(C)c(-c2cc3cc(CC)ncc3o2)c(N[C@@H]2C[C@H](CO)[C@@H](O)[C@H]2O)n1.Cl
[3] CCOc1cc2cc(-c3c(C)nc(NCc4cc(OC)cc(OC)c4)nc3N[C@@H]3C[C@H](CO)[C@@H](O)[C@H]3O)oc2c(C)n1.Cl
[4] CCc1cc2cc(-c3c(Cl)nc(N)nc3N[C@@H]3C[C@H](CO)[C@@H](O)[C@H]3O)oc2cn1.Cl
Descending sort on AUC(0-t) at 6 h required. As an answer, provide the labels arranged in the order called for.
1, 2, 3, 4

[I] COc1cc2cc(-c3c(C)nc(NCC(C)(C)C)nc3N[C@@H]3C[C@H](CO)[C@@H](O)[C@H]3O)oc2c(C)n1.Cl
[II] CCOc1cc2cc(-c3c(C)nc(NCC4CC4)nc3N[C@@H]3C[C@H](CO)[C@@H](O)[C@H]3O)oc2c(C)n1.Cl
Response body: label of entry with the larger AUC(0-t) at 6 h; valid values I , II . Selection: enter the item's label.
II
(II: 45.5 µM·h, I: 4.4 µM·h)

[P] CCc1cc2cc(-c3c(C)nc(NCC(F)(F)F)nc3N[C@@H]3C[C@H](CO)[C@@H](O)[C@H]3O)oc2cn1.Cl
[Q] COc1cc2cc(-c3c(Cl)nc(N)nc3N[C@@H]3C[C@H](CO)[C@@H](O)[C@H]3O)oc2c(C)n1.Cl
Response body: label of entry with the larger AUC(0-t) at 6 h; valid values P , Q . Selection: enter the item's label.
P

[I] CCc1cc2cc(-c3c(C)nc(NCC(C)(C)C)nc3N[C@@H]3C[C@H](CO)[C@@H](O)[C@H]3O)oc2cn1.Cl
[II] CCc1cc2cc(-c3c(C)nc(NC)nc3N[C@@H]3C[C@H](CO)[C@@H](O)[C@H]3O)oc2cn1.Cl
[III] CCc1cc2cc(-c3c(C)nc(NCc4cc(OC)cc(OC)c4)nc3N[C@@H]3C[C@H](CO)[C@@H](O)[C@H]3O)oc2cn1.Cl
[IV] CCOc1cc2cc(-c3c(C)nc(Nc4ccccc4)nc3N[C@@H]3C[C@H](CO)[C@@H](O)[C@H]3O)oc2c(C)n1.Cl
Descending sort on AUC(0-t) at 6 h required. As an answer, provide the labels arranged in the order called for.
IV, I, II, III
(IV: 18.5 µM·h, I: 4 µM·h, II: 0.9 µM·h, III: 0.1 µM·h)

[1] CCc1cc2cc(-c3c(Cl)nc(N)nc3N[C@@H]3C[C@H](CO)[C@@H](O)[C@H]3O)oc2c(CC)n1.Cl
[2] CNc1nc(C)c(-c2cc3cc(OC)nc(C)c3o2)c(N[C@@H]2C[C@H](CO)[C@@H](O)[C@H]2O)n1.Cl
[3] CCOc1cc2cc(-c3c(C)nc(NCCOC)nc3N[C@@H]3C[C@H](CO)[C@@H](O)[C@H]3O)oc2c(C)n1.Cl
[4] CCc1nccc2cc(-c3c(Cl)nc(N)nc3N[C@@H]3C[C@H](CO)[C@@H](O)[C@H]3O)oc12.Cl
Descending sort on AUC(0-t) at 6 h required. As an answer, provide the labels arranged in the order called for.
2, 3, 1, 4
(2: 2.7 µM·h, 3: 1.1 µM·h, 1: 0.17 µM·h, 4: 0.05 µM·h)

[P] CCOc1cc2cc(-c3c(C)nc(NC)nc3N[C@@H]3C[C@H](CO)[C@@H](O)[C@H]3O)oc2c(C)n1.Cl
[Q] CCc1cc2cc(-c3c(C)nc(NCCCC(F)(F)F)nc3N[C@@H]3C[C@H](CO)[C@@H](O)[C@H]3O)oc2cn1.Cl
Response body: label of entry with the larger AUC(0-t) at 6 h; valid values P , Q . Selection: enter the item's label.
P

[a] COc1cc(CNc2nc(C)c(-c3cc4cc(OC)nc(C)c4o3)c(N[C@@H]3C[C@H](CO)[C@@H](O)[C@H]3O)n2)cc(OC)c1.Cl
[b] CCOc1cc2cc(-c3c(C)nc(NCC(F)(F)F)nc3N[C@@H]3C[C@H](CO)[C@@H](O)[C@H]3O)oc2c(C)n1.Cl
Response body: label of entry with the larger AUC(0-t) at 6 h; valid values a , b . Selection: enter the item's label.
b
